tested on: A549; test: Growth inhibition of human A549/ATCC cells incubated for 48 hrs by sulforhodamine B assay; type: functional, cell-based; conditions: A549, 48 h
pIC50: −log10 of the molar value.
Parameter: pIC50. Scope: all listed entries.
measurement_name: pIC50

structure	endpoint_value
COc1cc(Cl)cc(-c2nn(-c3cccc(NC(=O)c4ccc(N5CCOCC5)c(C(F)(F)F)c4)c3)cc2-c2ccncc2)c1	5.04
COc1cc(Cl)cc(-c2nn(-c3cccc(NC(=O)Nc4ccc(Cl)c(C(F)(F)F)c4)c3)cc2-c2ccncc2)c1	6.17
COc1cc(Cl)cc(-c2nn(-c3cccc(NC(=O)Nc4cccc(C(F)(F)F)c4)c3)cc2-c2ccncc2)c1	6.14
COc1cc(Cl)cc(-c2nn(-c3cccc(NC(=O)Nc4cc(C(F)(F)F)cc(C(F)(F)F)c4)c3)cc2-c2ccncc2)c1	6.43
O=C(Nc1cccc(-n2cc(-c3ccncc3)c(-c3cc(O)cc(Cl)c3)n2)c1)Nc1ccc(Cl)c(Cl)c1	5.71
COc1cc(Cl)cc(-c2nn(-c3cccc(NC(=O)Nc4ccc(Cl)c(Cl)c4)c3)cc2-c2ccncc2)c1	5.83
